biological target: Cytosol aminopeptidase (Homo sapiens) (UniProt P28838); assay: human M17LAP inhibitors, dose response, counter-screen for PfM17LAP inhibitor project, biochemical, QFRET fluorogenic substrate (AID 602214); details: purified recombinant human M17LAP, H-Leu-NHMec fluorescence
Sequence (P28838 whole entry, looked up): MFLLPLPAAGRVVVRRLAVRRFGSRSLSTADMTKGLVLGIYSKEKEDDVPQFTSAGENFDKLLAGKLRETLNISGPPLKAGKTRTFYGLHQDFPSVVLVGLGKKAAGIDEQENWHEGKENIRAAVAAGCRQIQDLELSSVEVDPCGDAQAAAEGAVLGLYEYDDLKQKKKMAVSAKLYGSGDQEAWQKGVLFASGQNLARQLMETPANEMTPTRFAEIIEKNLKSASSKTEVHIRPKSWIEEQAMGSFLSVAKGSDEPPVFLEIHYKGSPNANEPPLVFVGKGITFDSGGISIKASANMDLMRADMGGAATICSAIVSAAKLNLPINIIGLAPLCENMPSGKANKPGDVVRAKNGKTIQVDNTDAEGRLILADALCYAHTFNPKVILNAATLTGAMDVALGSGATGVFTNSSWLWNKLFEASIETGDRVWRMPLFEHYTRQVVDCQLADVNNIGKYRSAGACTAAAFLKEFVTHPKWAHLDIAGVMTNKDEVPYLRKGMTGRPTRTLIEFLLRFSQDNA
// reported IC50 per item

Consider the reported IC50 for these molecules:
>>> result("CCOc1ccc(CC(=O)NO)cc1")
"1.11 µM"
>>> result("Cc1ccc(CC(=O)NO)cc1")
"1.82 µM"
>>> result("O=C(NO)c1cccc2ccccc12")
"31.9 µM"
>>> result("O=C(Cc1ccc(OCc2ccccc2)cc1)NO")
"1.18 µM"
>>> result("COC(=O)c1c(NC(=O)C2CC=CCC2C(=O)O)sc(C)c1-c1ccc(C)cc1 (stereo not drawn)")
"85.7 µM"

[Q] Consider the molecule shown here: CCCCOc1ccc(CCC(=O)NO)cc1 What is its recorded IC50?
[A] 16.2 µM

[Q] Continue with COc1ccc(CCCC(=O)NO)cc1
[A] 4.58 µM

[Q] Continue with O=C(Cc1cccc2ccccc12)NO
[A] 0.99 µM
